# Tested on: two-spotted spider mite (Tetranychus urticae)
# assay procedure: Foliar test against two-spotted spider mite on pinto bean seedlings
# Assay type: in vivo
# settings: foliar spray, 1000 ppm, 72 hours
Percent Control less than 60% is 1.0; Percent Control greater than or equal to 60% is 0.0.

| compound | label value |
| --- | --- |
| CCCCOc1nsnc1C1=CCCN(C)C1 | 1.0 |
| CC#CCOc1nsnc1C1=CCCN(C)C1 | 0.0 |
| CCCCSc1nsnc1C1=CCCN(C)C1 | 1.0 |
| C#CCOc1nsnc1C1=CCCN(C)C1 | 0.0 |
| CCCOc1nsnc1C1CN2CCC1CC2 (stereo not drawn) | 0.0 |

A record lists CN1CCC=C(c2cnsn2)C1 . Is its Percent Control below 60%?
0.0

====

# Tested on: two-spotted spider mite (Tetranychus urticae)
# assay procedure: Foliar test against two-spotted spider mite on pinto bean seedlings
# Assay type: in vivo
# settings: foliar spray, 300 ppm, 72 hours
Record True whenever Percent Control is at 80% or higher; record False when lower.

Below, 3 compounds whose answers are already recorded.
| compound | label value |
| --- | --- |
| CCCOc1nsnc1C1CN2CCC1CC2 (stereo not shown) | False |
| CCCCSc1nsnc1C1=CCCN(C)C1 | False |
| CN1CCC=C(c2nsnc2F)C1 | True |

Quick check, Percent Control >= 80%? CCCCOc1nsnc1C1CN2CCC1CC2 (stereo not shown)
False

Please check the record CCCCOc1nsnc1C1=CCCN(C)C1 and state if its Percent Control is at or above 80%.
False

====

Measured Percent Control of individual entries
# System: two-spotted spider mite (Tetranychus urticae)
# assay procedure: Foliar test against two-spotted spider mite on pinto bean seedlings
# Format: in vivo
# settings: foliar spray, 300 ppm, 72 hours
Give the value in % but do not write % after it.

Sure, the documented Percent Control for CN1CCC=C(c2cnsn2)C1 [Compound 4] is 100

In plain terms, CC#CCOc1nsnc1C1=CCCN(C)C1 [Compound 67] has a documented Percent Control of 100

====

# Test system: two-spotted spider mite (Tetranychus urticae)
# assay procedure: Foliar test against two-spotted spider mite on pinto bean seedlings
# Assay type: in vivo
# settings: foliar spray, 300 ppm, 72 hours
quantity: Percent Control

| compound | reading |
| --- | --- |
| Cc1nsc(C2=CCCN(C)C2)n1 [B, reference compound] | completely inactive |
| C#CCOc1nsnc1C1=CCCN(C)C1 | 83% |
| CCCSc1nsnc1C1=CCCN(C)C1 | 20% |
| CN1CCC=C(c2ncns2)C1 [A, reference compound] | completely inactive |
| Clc1nsnc1C1CN2CCC1CC2 (stereo not drawn) | 27% |

Continue with the next compound.
Summary for this compound, C=CCSc1nsnc1C1=CCCN(C)C1 : Percent Control is 13%
